- tgt: Atrial natriuretic peptide receptor 1 (Homo sapiens)
- run-description: Natriuretic polypeptide receptor (hNpr1) antagonism - Pilot CMLD screen (AID 1347052);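 also: cGMP level read as GloSensor luciferase luminescence after agonist stimulation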
- experimental-setup: HEK293 hNpr1 GloSensor cGMP luminescence, ANP-stimulated; series mostly up to 9.22 µM
Records with an inconclusive call do not appear. Activity calls are given as the source filed them. Calls follow the shape of the full dose curve.
Select the correct class. Options are 1 (active), -1 (inactive) and nothing else.

Worked set:
CC(CCN1CCCc2nc(C)c(C)cc21)=NO[C@H](C)CN1CCCc2nc(C)c(C)cc21 = -1
COC(=O)CC=C1c2ccc(OC)cc2[C@@H](OC)[C@@H]1C = -1
CCCC[C@@H]1CN2[C@H](c3ccc(Br)cc3)[C@H](C)CC[C@H]2C(=O)O1 = 1
C=CCNC(=O)N1CCc2nc(-c3ccccc3)c3c(c2C1)CO[C@@H](C)C3 = -1
COc1ccc(O[C@H]2C=C[C@@H](c3ccccc3)O[C@H]2CON=C2[C@H]3CCn4c(=O)n(-c5ccccc5)c(=O)n4[C@@H]3[C@H](O)[C@@H]3O[C@H]23)cc1 = -1
CC1(OC(=O)C2CCCC2)C(=O)C=C2C=C(c3ccsc3)N(C(CO)CO)C=C2C1=O (centres undefined) = -1
COc1ccc(C(O)C2=CCCC2=O)cc1 (centres undefined) = -1
C=C(CCN1C=C(C(=O)OCC)C(c2ccccc2)NC1=O)c1ccc(Cl)cc1 (centres undefined) = -1

Now, please, on to the next compound.
Ask: Called result for Cc1cc(O)cc(O)c1C(=O)OC1(C)C(=O)C=C2C=C(C=CCO)OC=C2C1=O (centres undefined)
Reply: -1

###

- Test system: Zika virus NS2B-NS3 protease (linked construct)
- run-description: 384 well plate NINDS Rhodamine confirmatory qHTS for Zika virus inhibitors (AID 1347164);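 also: fluorescence from protease cleavage of Ac-LKRR-rhodamine 110 substrate; nearly all actives have a fitted effect of over 65% in size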
- experimental-setup: rhodamine-110 peptide substrate fluorescence; series mostly up to 1 mM
Records with an inconclusive call do not appear. The source made the active and inactive calls. Calls follow the shape of the dose curve; as a rule, active = well fitted inhibition curve with a large enough effect; inconclusive = small, poorly fitted or top-dose-only effect; inactive = no such curve, though single readings can be large or run the other way.
Select the correct class. Options are active, inactive and nothing else.

O=S(=O)(Nc1ccc(Cl)cc1)c1ccc(NS(=O)(=O)c2ccc3c(c2)OCCO3)cc1 = active

Ask: Called result for O=C(OC1Cc2c(O)cc(O)cc2OC1c1cc(O)c(=O)c2c(O)c(O)cc(C3Oc4cc(O)cc(O)c4CC3OC(=O)c3cc(O)c(O)c(O)c3)c2c1)c1cc(O)c(O)c(O)c1 (configuration not stated)
Reply: inactive

Ask: Called result for `O=C(O)c1cc(-n2c(/C=C\c3ccc(F)cc3)nc3ccccc3c2=O)ccc1Cl`
Reply: active

Ask: Called result for `CC(=O)Oc1cc2c(c(C)c1OC(C)=O)CC=C1[C@@]2(C)CC[C@@]2(C)[C@H]3C[C@](C)(C(=O)O)CC[C@]3(C)CC[C@]12C`
Reply: active

Ask: Called result for `CC[C@H](C)[C@H]1O[C@]2(CC[C@@H]1C)C[C@@H]1C[C@@H](C/C=C(\C)[C@@H](O[C@H]3C[C@H](OC)[C@@H](O[C@H]4C[C@H](OC)[C@@H](O)[C@H](C)O4)[C@H](C)O3)[C@@H](C)/C=C/C=C3\CO[C@@H]4[C@H](O)C(C)=C[C@@H](C(=O)O1)[C@]34O)O2`
Reply: inactive

Ask: Called result for CC(C)=CCCC1(C)C=Cc2c(O)c3c(c(CC=C(C)C)c2O1)OC12C(=CCCC1C(C)(C)O[C@@]2(C/C=C(\C)C(=O)O)C(=O)O)C3=O (some centres not stated)
Reply: active

Ask: Called result for C=C1c2c(Cl)ccc(O)c2C(O)=C2C(=O)[C@]3(O)C(O)=C(C(N)=O)C(=O)[C@@H](N(C)C)[C@@H]3[C@@H](O)C12 (some centres not stated)
Reply: active
